system: RSK3(Kin.Dom.1-N-terminal); construct: gene RPS6KA2; details: concentration: 1 μM, replicates: in singlicate; n = 1;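 note: KINOMEscan kinase panel screen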
Measure: %Inh (%)
Answer in %, number only, no unit symbol.

Data request: Look up %Inh: O=C(NCCNc1ccnc(Nc2ccc(F)cc2)n1)c1cc2ccccc2s1
Data returned: 0

Data request: Look up %Inh: CCc1nc(-c2cccc(C)c2)c(-c2ccnc(NCc3ccccc3)c2)s1
Data returned: 0

Data request: Look up %Inh: COc1ccc(CNC(=O)NC2CCN(c3ccnc(Nc4ccc(OC)cc4)n3)C2)cc1 (centres unmarked)
Data returned: 0

Data request: Look up %Inh: Cc1cccc(Cn2ccn3c(=O)cc(N4CCOCC4)nc23)c1
Data returned: 19

Data request: Look up %Inh: Fc1ccc(-c2ncn(CCCN3CCOCC3)c2-c2ccccn2)cc1
Data returned: 0

Data request: Look up %Inh: COc1cc2c(cc1OC[C@@H](O)CO)ncc1c3ccc(C#N)cc3[nH]c21
Data returned: 11

Data request: Look up %Inh: Cc1c2ccc(N(C)c3ccnc(Nc4cccc(S(N)(=O)=O)c4)n3)cc2nn1Cc1ccccc1.Cl.Cl
Data returned: 0

Data request: Look up %Inh: O=C(NCCCN1CCOCC1)c1cccc(Nc2nccc(Nc3ccc(Oc4ccccc4)cc3)n2)c1
Data returned: 7

Data request: Look up %Inh: CCCCCc1nc2c(N)ncnc2n1CCCCC
Data returned: 0

Data request: Look up %Inh: Cc1ccc(C(=O)NCC(N)=O)cc1-n1c(C)cc(OCc2ccc(F)cc2F)c(Br)c1=O
Data returned: 22

Data request: Look up %Inh: Cn1ccc2ncnc(Oc3ccc(NC(=O)Nc4ccncc4)c(Cl)c3)c21
Data returned: 0

---

system: TLK1; conditions: concentration: 1 μM, replicates: in singlicate; n = 1
Measure: %Inh (%)
Answer in %, number only, no unit symbol.

O=C(NCCCN1CCOCC1)c1cccc(Nc2nccc(Nc3ccc(Oc4ccccc4)cc3)n2)c1 [GW663929]    18

Data request: Record lookup: for TLK1, what %Inh belongs to CN(C1=C(c2ccccc2)C(=O)NC1=O)c1ccccc1 [SB-334860] ?
Data returned: 20

Data request: Record lookup: for TLK1, what %Inh belongs to N#Cc1ccc(-c2cc(-c3c[nH]nc3-c3ccccn3)ccn2)cc1 [GW693028] ?
Data returned: 0

Data request: Record lookup: for TLK1, what %Inh belongs to O=c1cc(N2CCOCC2)nc2n(Cc3cccc(Cl)c3Cl)c(C3CC3)nn12 [GSK2358994] ?
Data returned: 25

Data request: Record lookup: for TLK1, what %Inh belongs to COc1ccc(Nc2nccc(N3CCC(NC(=O)Nc4cccc(C(C)=O)c4)C3)n2)cc1 (centres unmarked) [GSK1379731] ?
Data returned: 0

---

As shown below, each of these compounds has a reported %Inh value.
tested on: RSK2(Kin.Dom.2-C-terminal); construct: gene RPS6KA3; conditions: concentration: 1 μM, replicates: in singlicate; n = 1
Answer in %, number only, no unit symbol.

Some entries whose results are on file:
CCc1nc(-c2cccc(C)c2)c(-c2ccnc(NCc3ccccc3)c2)s1    0
O=C1NC(=O)C(N2CCc3ccccc32)=C1c1cccc(Cl)c1    0
COc1ccc(Nc2ncc(C#N)c(Nc3ccccc3C(N)=O)n2)cc1N1CCN(C)CC1.Cl    7
CCc1ccnc(/C=C/c2n[nH]c3cc(Sc4ccccc4C(=O)NC)ccc23)c1    0
COc1cc2c(cc1OC[C@@H](O)CO)ncc1c3ccc(C#N)cc3[nH]c21    0
O=C(Nc1cccc(-c2nn3ncccc3c2-c2ccnc(Nc3cccc(C(F)(F)F)c3)n2)c1)c1c(F)cccc1F    0
COc1cc2c(cc1OCCN1CCN(C)CC1)ncc1c3ccc(C#N)cc3[nH]c21    42
O=c1cc(N2CCOCC2)nc2n(Cc3cccc(Cl)c3Cl)c(C3CC3)nn12    18

Data request: Look up %Inh: Cl.Nc1ncnc2occ(-c3ccc(NC(=O)Nc4cc(C(F)(F)F)ccc4F)cc3)c12
Data returned: 27

Data request: Look up %Inh: COc1cc2ncn(-c3cc(OCc4sccc4Cl)c(C(N)=O)s3)c2cc1OC
Data returned: 21

Data request: Look up %Inh: Cc1c(Cn2c(C)nn3c(=O)cc(N4CCOC(C)C4)nc23)cccc1C(F)(F)F (centres unmarked)
Data returned: 0

---

system: NDR2; details: concentration: 1 μM, replicates: in singlicate; n = 1
Measure: %Inh (%)
Answer in %, number only, no unit symbol.

Some entries whose results are on file:
CN(C(=O)c1ccc(-c2cc(-c3c[nH]nc3-c3ccccn3)ccn2)cc1)C1CCOCC1 [GW810083]    0
CN1c2ccc(NCc3ccc(F)cc3)cc2-c2c(cnn2C)S1(=O)=O    0
Cc1ccc(C(=O)NCC(N)=O)cc1-n1c(C)cc(OCc2ccc(F)cc2F)c(Br)c1=O    13
NS(=O)(=O)c1cccc(-c2ccc3nccc(-c4cccc(S(N)(=O)=O)c4)c3c2)c1 [GW867253]    19
COC(=O)Nc1nc2cc(Oc3ccc(NC(=O)Nc4cc(F)ccc4F)cc3)ccc2[nH]1.Cl [GW701424]    0

Note: attention shifts to another entry.
Data request: Look up %Inh: COc1ccc(COc2cc(-n3cnc4ccccc43)sc2C(N)=O)cc1 [GSK1024304]
Data returned: 0

---

tested on: NEK6; conditions: concentration: 1 μM, replicates: in singlicate; n = 1
So basically: is %Inh under 20%? Then 1. Not under? Then 0.

O=C1Cc2cc(Nc3nc(NCc4cccc(S(=O)(=O)C(F)(F)F)c4)ncc3C(F)(F)F)ccc2N1    1
COc1cc(Nc2nccc(N3CCC(NC(=O)c4cccc(NC(C)=O)c4)C3)n2)cc(OC)c1OC (stereo not shown)    0
O=C(Nc1cccc(-c2nn3ncccc3c2-c2ccnc(Nc3cccc(C(F)(F)F)c3)n2)c1)c1c(F)cccc1F    1
CCn1cnc2c(N)ncnc21    0

Data request: Here's an entry: COc1ccc(CNC(=O)NC2CCN(c3ccnc(Nc4ccc(OC)cc4)n3)C2)cc1 (stereo not shown) . Is its %Inh below 20%?
Data returned: 1

Data request: Here's an entry: Cc1cn2c(=O)cc(N3CCOCC3)nc2n1Cc1cccc(Cl)c1Cl . Is its %Inh below 20%?
Data returned: 1

Data request: Here's an entry: COCCNC(=O)c1ccc(-c2cc(C(=O)NC3CC3)cc(F)c2C)cc1 . Is its %Inh below 20%?
Data returned: 0

---

tested on: NDR1; construct: gene STK38; details: concentration: 1 μM, replicates: in singlicate; n = 1
Returns one of Yes or No; Yes when %Inh is >= 20%.

Worked examples follow.
O=c1cc(N2CCOCC2)nc2n(Cc3cccc(C(F)(F)F)c3)ccn12 [GSK2297543]    No
NCC(NC(=O)c1cc(-c2cn[nH]c2)c(-c2ccnc3[nH]ccc23)s1)c1ccccc1.O=C(O)C(F)(F)F.O=C(O)C(F)(F)F (stereo not shown) [GSK1325775]    Yes
CCn1cnc2c(N)ncnc21 [GW345098]    No
Fc1ccc(-c2ncn(CCCN3CCOCC3)c2-c2cccnc2)cc1 [SB-211743]    Yes
COc1ccc(CNC(=O)NC2CCN(c3ccnc(Nc4ccc(OC)cc4)n3)C2)cc1 (stereo not shown) [GSK1379727]    No
Cc1cccc(-c2nc(-c3ccc(S(C)(=O)=O)cc3)sc2-c2ccncc2)c1    No
CC(C)Oc1ccc2c(-c3ccnc(Nc4ccc(N5CCN(C)CC5)cc4)n3)cnn2n1 [GW696155]    Yes
O=C(Nc1cccc(-c2nn3ncccc3c2-c2ccnc(Nc3cccc(C(F)(F)F)c3)n2)c1)c1c(F)cccc1F [GSK299495]    No
Cn1ccc2ncnc(Oc3ccc(NC(=O)Nc4ccncc4)c(Cl)c3)c21    No
COc1cc2c(cc1OCCN1CCN(C)CC1)ncc1c3ccc(C#N)cc3[nH]c21    Yes

Data request: Please check the record COC(=O)Nc1nc2cc(Oc3ccc(NC(=O)Nc4cc(F)ccc4F)cc3)ccc2[nH]1.Cl [GW701424] and state if its %Inh is at or above 20%.
Data returned: Yes

Data request: Please check the record CC(C)(C)n1cnc2c(N)ncnc21 [SKF-97359] and state if its %Inh is at or above 20%.
Data returned: No

Data request: Please check the record N#Cc1c(N2CCOCC2)sc(-c2ccn[nH]2)c1-c1ccc(Cl)cc1 and state if its %Inh is at or above 20%.
Data returned: No

Data request: Please check the record O=C(NCCNc1ccnc(Nc2ccc(F)cc2)n1)Nc1ccccc1F [GSK1379880] and state if its %Inh is at or above 20%.
Data returned: No

Data request: Please check the record COc1ccc(COc2cc(-n3cnc4ccccc43)sc2C(N)=O)cc1 [GSK1024304] and state if its %Inh is at or above 20%.
Data returned: No

Data request: Please check the record COc1ccc(Nc2nccc(N3CCC(NC(=O)Nc4cc(C)ccc4C)C3)n2)cc1 (stereo not shown) [GSK1379741] and state if its %Inh is at or above 20%.
Data returned: No

Data request: Please check the record CN(C1=C(c2ccccc2)C(=O)NC1=O)c1ccccc1 [SB-334860] and state if its %Inh is at or above 20%.
Data returned: Yes

Data request: Please check the record Cl.Nc1ncnc2occ(-c3ccc(NC(=O)Nc4cc(C(F)(F)F)ccc4F)cc3)c12 [SB-707548] and state if its %Inh is at or above 20%.
Data returned: Yes

Data request: Please check the record Cl.Oc1cccc(Nc2ccnc3cc(-c4ccncc4)ccc23)c1 [GW494601] and state if its %Inh is at or above 20%.
Data returned: Yes
